- Tested on: NIH-3T3 (normal cell line)
- assay-summary: Cell uptake assay in NIH-3T3 cells
- Type: cell-based, mouse
- reported-conditions: 0.1 mM, 1 h
Use 50 ng/10^6 cell as the dividing line for Cell uptake, Mean (ng/10^6 cell), NIH-3T3, with the line itself on the true side and lower values as false.

Worked examples, 3 molecules total:
N[C@@H](Cc1cccc(B(O)O)c1O)C(=O)O [Comparator Compound B, reference compound] | true
N[C@@H](Cc1c(F)ccc(B(O)O)c1O)C(=O)O | true
N[C@@H](Cc1cc(F)cc(B(O)O)c1O)C(=O)O | true

Evaluate N[C@@H](Cc1ccc(F)c(B(O)O)c1O)C(=O)O : Cell uptake, Mean (ng/10^6 cell), NIH-3T3 at minimum 50 ng/10^6 cell? false

Threshold query (Cell uptake, Mean (ng/10^6 cell), NIH-3T3 >= 50 ng/10^6 cell) on N[C@@H](Cc1cc(Cl)cc(B(O)O)c1O)C(=O)O false

Tell me whether Cell uptake, Mean (ng/10^6 cell), NIH-3T3 is at least 50 ng/10^6 cell here: N[C@@H](Cc1cccc(B(O)O)c1O)C(=O)O [Compound 1] true

---

- System: SAS (head & neck cancer)
- assay-summary: Cell uptake assay in SAS cells
- Type: cell-based, human
- reported-conditions: 0.1 mM, 24 h
# Cell uptake, Mean (ng/10^6 cell), SAS annotations
Please respond with the number in ng/10^6 cell and leave the unit unwritten.

N[C@@H](Cc1ccc(F)c(B(O)O)c1O)C(=O)O | 886
N[C@@H](Cc1cc(Cl)cc(B(O)O)c1O)C(=O)O | 1735
N[C@@H](Cc1c(F)ccc(B(O)O)c1O)C(=O)O | 1580
N[C@@H](Cc1cccc(B(O)O)c1O)C(=O)O [Comparator Compound B, reference compound] | 1465
N[C@@H](Cc1cc(F)cc(B(O)O)c1O)C(=O)O | 1605

Here is another molecule to look at.
Please list Cell uptake, Mean (ng/10^6 cell), SAS recorded for the molecule N[C@@H](Cc1cccc(B(O)O)c1O)C(=O)O [Compound 1] 2625

---

- Tested on: U87-MG (glioblastoma)
- assay-summary: Cell uptake assay in U87-MG cells
- Format: cell-based, human
- reported-conditions: 0.1 mM, 4 h
value-kind: Cell uptake, Mean (ng/10^6 cell), U87-MG
Report the figure in ng/10^6 cell without appending any unit label.

Completed entries (count: 5):
N[C@@H](Cc1c(F)ccc(B(O)O)c1O)C(=O)O [Compound 3] | 621
N[C@@H](Cc1cc(Cl)cc(B(O)O)c1O)C(=O)O [Compound 6] | 171
N[C@@H](Cc1cc(F)cc(B(O)O)c1O)C(=O)O [Compound 8] | 505
N[C@@H](Cc1cccc(B(O)O)c1O)C(=O)O [Compound 1] | 713
N[C@@H](Cc1ccc(F)c(B(O)O)c1O)C(=O)O [Compound 4] | 40

Quickly give me recorded Cell uptake, Mean (ng/10^6 cell), U87-MG for N[C@@H](Cc1cccc(B(O)O)c1O)C(=O)O [Comparator Compound B, reference compound] 519

---

- Tested on: B16F10 (melanoma)
- assay-summary: Cell uptake assay in B16F10 cells
- Assay type: cell-based, mouse
- reported-conditions: 0.1 mM, 24 h
value-kind: Cell uptake, Mean (ng/10^6 cell), B16F10
Express your answer in ng/10^6 cell, writing the number without its unit.

For orientation, consider the following solved cases.
N[C@@H](Cc1cc(F)cc(B(O)O)c1O)C(=O)O | 615
N[C@@H](Cc1cccc(B(O)O)c1O)C(=O)O [Comparator Compound B, reference compound] | 662
N[C@@H](Cc1c(F)ccc(B(O)O)c1O)C(=O)O | 196
N[C@@H](Cc1cccc(B(O)O)c1O)C(=O)O [Compound 1] | 669
N[C@@H](Cc1ccc(F)c(B(O)O)c1O)C(=O)O | 48.1

Query compound follows.
Give recorded Cell uptake, Mean (ng/10^6 cell), B16F10. N[C@@H](Cc1cc(Cl)cc(B(O)O)c1O)C(=O)O 222

---

- Tested on: NIH-3T3 (normal cell line)
- assay-summary: Cell uptake assay in NIH-3T3 cells
- Type: cell-based, mouse
- reported-conditions: 0.1 mM, 4 h
Cell uptake, Mean (ng/10^6 cell), NIH-3T3 under 60 ng/10^6 cell gets Y, anything at or over 60 ng/10^6 cell gets N.

N[C@@H](Cc1cccc(B(O)O)c1O)C(=O)O [Comparator Compound B, reference compound] | N

Please determine if N[C@@H](Cc1cccc(B(O)O)c1O)C(=O)O [Compound 1] is below 60 ng/10^6 cell in terms of Cell uptake, Mean (ng/10^6 cell), NIH-3T3. N

Would you kindly verify if Cell uptake, Mean (ng/10^6 cell), NIH-3T3 of N[C@@H](Cc1c(F)ccc(B(O)O)c1O)C(=O)O is strictly less than 60 ng/10^6 cell? N

Does the reported Cell uptake, Mean (ng/10^6 cell), NIH-3T3 of N[C@@H](Cc1cc(F)cc(B(O)O)c1O)C(=O)O stay below 60 ng/10^6 cell? N

Could you please tell me whether Cell uptake, Mean (ng/10^6 cell), NIH-3T3 recorded for N[C@@H](Cc1ccc(F)c(B(O)O)c1O)C(=O)O is less than 60 ng/10^6 cell? Y

---

- Test system: B16F10 (melanoma)
- assay-summary: Cell uptake assay in B16F10 cells
- Assay type: cell-based, mouse
- reported-conditions: 0.1 mM, 4 h
Cut-off 200 ng/10^6 cell on Cell uptake, Mean (ng/10^6 cell), B16F10, inclusive. At or above means True; below means False.

Solved cases (3 shown):
N[C@@H](Cc1cccc(B(O)O)c1O)C(=O)O [Comparator Compound B, reference compound] | True
N[C@@H](Cc1c(F)ccc(B(O)O)c1O)C(=O)O | True
N[C@@H](Cc1ccc(F)c(B(O)O)c1O)C(=O)O | False

Check if Cell uptake, Mean (ng/10^6 cell), B16F10 >= 200 ng/10^6 cell (inclusive). Item: N[C@@H](Cc1cccc(B(O)O)c1O)C(=O)O [Compound 1] True

Could you tell me if the measured Cell uptake, Mean (ng/10^6 cell), B16F10 of N[C@@H](Cc1cc(F)cc(B(O)O)c1O)C(=O)O reaches 200 ng/10^6 cell or more? False

Does the molecule N[C@@H](Cc1cc(Cl)cc(B(O)O)c1O)C(=O)O have recorded Cell uptake, Mean (ng/10^6 cell), B16F10 that is 200 ng/10^6 cell or more? False

---

- Tested on: U87-MG (glioblastoma)
- assay-summary: Cell uptake assay in U87-MG cells
- Format: cell-based, human
- reported-conditions: 0.1 mM, 24 h
value-kind: Cell uptake, Mean (ng/10^6 cell), U87-MG
Please give a number only; it is taken to be in ng/10^6 cell.

N[C@@H](Cc1cccc(B(O)O)c1O)C(=O)O [Comparator Compound B, reference compound] | 250
N[C@@H](Cc1cccc(B(O)O)c1O)C(=O)O [Compound 1] | 1315
N[C@@H](Cc1c(F)ccc(B(O)O)c1O)C(=O)O | 555
N[C@@H](Cc1cc(Cl)cc(B(O)O)c1O)C(=O)O | 244
N[C@@H](Cc1cc(F)cc(B(O)O)c1O)C(=O)O | 545

We next turn to a different molecule, shown below.
Give recorded Cell uptake, Mean (ng/10^6 cell), U87-MG. N[C@@H](Cc1ccc(F)c(B(O)O)c1O)C(=O)O 117
